Reference for the values: patent US20170015742A1

systemTested: T1, Human PDGF-BB (human, UniProt P01127 82-190)
T1 construct: Recombinant human PDGF-BB, a homodimer of two B chains; also called hPDGF-BB; huPDGF-BB
T1 sequence (P01127 82-190 limits assumed): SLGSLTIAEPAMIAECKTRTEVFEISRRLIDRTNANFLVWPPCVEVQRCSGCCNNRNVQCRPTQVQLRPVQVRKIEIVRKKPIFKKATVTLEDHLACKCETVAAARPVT
experiment: SPR (Biacore), antibody captured via anti-human Fc, antigen in solution; footnote *: heterogeneous off-rate
endpointLabel: Kd

# get_value(readout='Kd', item= hBDI-9E8.13 (antibody, V domains shown, Humanized IgG) VH: EVTLRESGPALVKPTQTLTLTCTFSGFSLSTYGMGVGWIRQPPGKGLEWLANIWWDDDKYYNPSLKNRLTISKDTSKNQAVLTITNMDPVDTATYYCARIESIGTTYSFDYWGQGTMVTVSS VL: DFQLTQSPSSLSASVGDRVTITCERSSGDIGDSYVSWYQQKPGKAPKNVIYADDQRPSGVPSRFSGSGSGNSASLTISSLQPEDFATYYCQSYDINIDIVFGQGTKVEIK )
≤ 0.1 nM

// query: hBDI-5H1.8 (antibody, V domains shown, Humanized IgG) VH: EVTLKESGPALVKPTQTLTLTCTFSGFSLSTFGMGVGWIRQPPGKALEWLANIWWDDDKYYNPSLKNRLTISKDTSKNQAVLTITNMDPVDTATYYCARISTGISSYYVMDAWGQGTTVTVSS VL: EFVLTQSPGTLSLSPGERATLSCERSSGDIGDTYVSWYQQKPGQAPRLVIYGNDQRPSGIPDRFSGSGSGTDFTLTISRLEPEDFAVYYCQSYDSDIDIVFGGGTKVEIK
≤ 72 nM

// query: hBDI-9E8.8 (antibody, V domains shown, Humanized IgG) VH: EVTLRESGPALVKPTQTLTLTCTFSGFSLSTYGMGVGWIRQPPGKGLEWLANIWWDDDKYYNPSLKNRLTISKDTSKNQAVLTITNMDPVDTATYYCARIESIGTTYSFDYWGQGTMVTVSS VL: EFVLTQSPGTLSLSPGERATLSCERSSGDIGDSYVSWYQQKPGQAPRLVIYADDQRPSGIPDRFSGSGSGTDFTLTISRLEPEDFAVYYCQSYDINIDIVFGGGTKVEIK
≤ 0.017 nM

// query: hBDI-5H1.13 (antibody, V domains shown, Humanized IgG) VH: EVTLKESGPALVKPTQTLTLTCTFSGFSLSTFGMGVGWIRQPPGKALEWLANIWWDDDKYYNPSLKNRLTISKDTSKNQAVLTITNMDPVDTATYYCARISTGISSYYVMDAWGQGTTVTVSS VL: DFQLTQSPSSLSASVGDRVTITCERSSGDIGDTYVSWYQQKPGKAPKNVIYGNDQRPSGVPSRFSGSGSGNSATLTISSLQPEDFATYFCQSYDSDIDIVFGQGTKVEIK
≤ 0.49 nM
